Below, each entry is listed with its recorded Intrinsic Dissolution Rate.
- measurement protocol: Comparative intrinsic dissolution testing (Wood apparatus)
- Type: physicochemical
- conditions: 900 mL deionized water, 75 rpm, sample compressed at 1.5 metric tons for 1 minute
assay metric: Intrinsic Dissolution Rate

[
  {
    "compound": "CC1=CC(=O)NS(=O)(=O)O1.N#CCC(C1CCCC1)n1cc(-c2ncnc3[nH]ccc23)cn1 (stereo not shown) [Ruxolitinib acesulfamate Form APO-II]",
    "recorded result": "0.0767 mg min^−1 cm^−2"
  },
  {
    "compound": "N#CC[C@H](C1CCCC1)n1cc(-c2ncnc3[nH]ccc23)cn1 [Ruxolitinib phosphate]",
    "recorded result": "0.0545 mg min^−1 cm^−2"
  },
  {
    "compound": "N#CCC(C1CCCC1)n1cc(-c2ncnc3[nH]ccc23)cn1.O=S(=O)(O)CCS(=O)(=O)O (stereo not shown) [Ruxolitinib edisylate Form APO-I]",
    "recorded result": "0.1711 mg min^−1 cm^−2"
  },
  {
    "compound": "CC1=CC(=O)NS(=O)(=O)O1.N#CC[C@H](C1CCCC1)n1cc(-c2ncnc3[nH]ccc23)cn1 [Ruxolitinib acesulfamate Form APO-I]",
    "recorded result": "0.2261 mg min^−1 cm^−2"
  }
]
